test system: Mycobacterium tuberculosis; experiment: Antitubercular activity against Mycobacterium tuberculosis H37Rv assessed as growth inhibition by micro plate alamar blue assay; assay type: functional

line.notation: Cc1ccc(-c2cc(/C(C#N)=C/N(C)C)n[nH]2)cc1
MIC: > 200 µM
//
line.notation: Cc1ccc(-c2cc(N3CCOCC3)c(C#N)c(-c3ccccc3)n2)cc1
MIC: > 200 µM
//
line.notation: Cc1ccc(-c2cc(N3CCCCC3)c(C#N)c(-c3ccccc3)n2)cc1
MIC: > 200 µM
//
line.notation: CCSc1nc(Cl)c(C#N)c(-c2ccc(F)cc2F)n1
MIC: 0.78 µg/mL
//
line.notation: Cc1ccc(-c2cc(CC#N)n[nH]2)cc1
MIC: > 200 µM

----------
test system: Mycobacterium tuberculosis; assay: Antitubercular activity against Mycobacterium tuberculosis H37Rv assessed as growth inhibition by micro plate alamar blue assay; format: functional
measured.attribute: MIC (µM)

compound: N#Cc1c(N2CCCCC2)cc(-c2ccc(Br)cc2)nc1-c1ccccc1
value.comparator: >
observed.value: 200

compound: CN(C)/C=C(\C#N)c1cc(-c2ccccc2)[nH]n1
value.comparator: =
observed.value: 200

compound: CCN(CC)CCOc1ccc(C2C3CCc4cc(OC)ccc4C3=NN2C(C)=O)cc1 (centres undefined)
value.comparator: =
observed.value: 200

compound: CN(C)/C=C(\C#N)c1cc(-c2ccc(Cl)cc2)[nH]n1
value.comparator: >
observed.value: 200

compound: N#Cc1c(N2CCCCC2)cc(-c2ccccc2)nc1-c1ccccc1
value.comparator: >
observed.value: 200

compound: N#Cc1c(N2CCCCC2)cc(-c2ccc(Cl)cc2)nc1-c1ccccc1
value.comparator: >
observed.value: 200

compound: COc1ccc(-c2cc(/C(C#N)=C/N(C)C)n[nH]2)cc1
value.comparator: =
observed.value: 100

compound: NC(=O)c1c(N2CCCCC2)cc(-c2ccc(Br)cc2)nc1-c1ccccc1
value.comparator: >
observed.value: 200

compound: COc1ccc2c(c1)CCC1C2=NN(C(C)=O)C1c1ccc(OCCN2CCCCC2)cc1 (centres undefined)
value.comparator: >
observed.value: 200

compound: COc1ccc(-c2cc(CC#N)n[nH]2)cc1
value.comparator: =
observed.value: 200

compound: COc1ccc2c(c1)CCC1C2=NN(C(C)=O)C1c1ccc(OCCN(C)C)cc1 (centres undefined)
value.comparator: =
observed.value: 200

compound: CN(C)/C=C(\C#N)c1cc(-c2ccc(Br)cc2)[nH]n1
value.comparator: >
observed.value: 200

compound: COc1ccc2c(c1)CCc1c(-c3ccc(OCCN4CCCC4)cc3)nc(N)nc1-2
value.comparator: =
observed.value: 200

compound: COc1ccc2c(c1)CCc1c(-c3ccc(OCCN(C)C)cc3)nc(N)nc1-2
value.comparator: =
observed.value: 100

The values you see were collected from ChEMBL document CHEMBL2434836.
